Assign KD (Relative value) against F1232-37-2 (relative to KD of F1232-37-2) to each entry below.
Biological target: human GPVI extracellular region-human Fc fusion protein (hGPVI-hFc) (human)
Sequence (chain, as listed by the source limits assumed): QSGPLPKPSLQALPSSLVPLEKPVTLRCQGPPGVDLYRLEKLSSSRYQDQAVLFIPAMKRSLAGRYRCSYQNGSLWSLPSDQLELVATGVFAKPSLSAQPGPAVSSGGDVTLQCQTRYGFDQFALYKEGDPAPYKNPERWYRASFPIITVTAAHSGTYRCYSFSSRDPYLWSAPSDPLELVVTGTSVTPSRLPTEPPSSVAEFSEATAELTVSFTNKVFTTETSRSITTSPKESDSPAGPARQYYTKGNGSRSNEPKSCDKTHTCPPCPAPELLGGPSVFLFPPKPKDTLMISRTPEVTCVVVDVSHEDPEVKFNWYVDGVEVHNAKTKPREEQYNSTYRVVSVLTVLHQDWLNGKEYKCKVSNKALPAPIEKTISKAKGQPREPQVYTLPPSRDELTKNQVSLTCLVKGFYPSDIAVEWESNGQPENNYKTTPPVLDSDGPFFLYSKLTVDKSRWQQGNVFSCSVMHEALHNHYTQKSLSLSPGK
Test: SPR (BIACORE3000) as in Example 5
Format: numeric value only, no unit, no commentary.

**Query** Tell me KD (Relative value) against F1232-37-2 (relative to KD of F1232-37-2) reported for F1249-30-1 (antibody, V domains shown) VH: QVQLQQSGAELVRPGVSVKISCKGSGYTFTDYAMHWVKQSHAKSLEWIGVISTYYGDTSYNQKFKGKAAMTVDKSSSTAYMELARLTSDDSAIYYCARAEDYDPWFAYWGQGTLVTVSA VL: DIVLTQSPASLAVSLGQRATISCRASESVDSYGNSFMHWYQQKPGQPPKLLIYRASNLESGIPARFSGSGSRTDFTLTINPVEADDVATYYCQQSDEDPLTFGAGTKLELKR
**Result** 0.347

**Query** Tell me KD (Relative value) against F1232-37-2 (relative to KD of F1232-37-2) reported for F1249-5-1 (antibody, V domains shown) VH: QVQLQQPGAELVKPGASVKLSCKASGYTFTSYWMHWLKQRPGQGLEWIGMIHPNSDITNYNEKFKNKATLTVAKSSSTAYMQLSSLTSEDSAVYYCARLGDYYAMDYWGQGTSVTVSS VL: SIVMTQTPKFLLVSAGDRVTITCKASQSVSNDVTWYQQKPGQSPKLLIYYASNRYTGVPDRFTGSGYGTDFTFTISTVQAEDLAVYFCQQDYSSPPTFGGGTKLEIKR
**Result** 0.00285
